System: SK-BR-3
Experiment: Cytotoxicity against human SKBR3 cells assessed as decrease in cell viability at 1 uM after 72 hrs in presence of GPER agonist E2 by MTS assay
Assay type: functional, cell-based
Calls of active or inactive are those of the source. No cut-off for these calls is given here.
measurement_kind: Activity

Answer with the recorded Activity for the compound listed here: O=C(Nc1ncc(Cc2ccc(F)cc2F)s1)c1[nH]c2ccccc2c1Cl
Active

Let me know recorded Activity for O=C(Nc1ncc(Cc2ccc(F)cc2)s1)c1cc2cc(F)ccc2[nH]1 , thanks.
inactive

Supply recorded Activity for CC(=O)c1ccc2c(c1)[C@@H]1C=CC[C@@H]1[C@H](c1cc3c(cc1Br)OCO3)N2 here.
Active

State its Activity: CCc1nc(NC(=O)c2[nH]c3ccc(Br)cc3c2Cl)sc1C
inactive
